test system: ALL-SIL; assay: selective drug sensitivity score (sDSS, relative to normal bone marrow) (sDSS (score)); higher = more potent and effective on the cell line relative to normal bone marrow cells; settings: 72 h;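 also: ALL cell lines in 384-well plates, five doses spanning 10,000-fold, each plate scaled between vehicle and 100 µmol/L benzalkonium chloride controls, sDSS an adapted area-under-curve metric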

{"Compound": "CN1CCN(c2ccc(C(=O)Nc3n[nH]c4ccc(Cc5cc(F)cc(F)c5)cc34)c(NC3CCOCC3)c2)CC1 [Entrectinib] (top concentration 1000 nM)", "Assay target": "ALL-SIL", "selective drug sensitivity score": -0.6}
{"Compound": "Clc1ccc(Nc2nnc(Cc3ccncc3)c3ccccc23)cc1 [Vatalanib] (top concentration 10000 nM)", "Assay target": "ALL-SIL", "selective drug sensitivity score": 0.1}
{"Compound": "CNC(=O)c1cc(Oc2ccc(NC(=O)Nc3ccc(Cl)c(C(F)(F)F)c3)c(F)c2)ccn1 [Regorafenib] (top concentration 10000 nM)", "Assay target": "ALL-SIL", "selective drug sensitivity score": 10}
